KD ratio to GLS3000 listing for selected binders.
- target.or.system: T1, CD3 epsilon homodimer protein (UniProt P07766 23-126)
- T1 construct: also called CD3 (CD3 epsilon)
- T1 sequence (P07766 23-126): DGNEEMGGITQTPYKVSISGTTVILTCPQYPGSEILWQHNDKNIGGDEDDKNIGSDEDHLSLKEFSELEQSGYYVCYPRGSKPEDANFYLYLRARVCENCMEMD
- test.details: SPR, antibody over immobilised CD3e homodimer;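 also: SPR at 25 °C with CD3 epsilon homodimer amine-coupled to a CM4 sensor chip and antibody flowed over as analyte in HBS-EP+ running buffer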
Give the figure by itself; no unit, no explanation.

>>> endpoint_value("CE115HA000/GLS3000 Q93S (antibody, IgG1, name in Kabat numbering, V domains shown, one-arm IgG1) VH: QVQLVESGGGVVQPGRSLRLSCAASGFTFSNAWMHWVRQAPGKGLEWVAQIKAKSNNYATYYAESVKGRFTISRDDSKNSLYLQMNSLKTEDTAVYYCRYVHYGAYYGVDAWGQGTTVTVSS VL: DIVMTQSPLSLPVTPGEPASISCRSSQSLVHSNRNTYLHWYQQKPGQAPRLLIYKVSNRFSGVPDRFSGSGSGTDFTLKISRVEAEDVGVYYCGQGTSVPYTFGQGTKLEIK")
0.75
>>> endpoint_value("CE115HA000/GLS3000 H27dN (antibody, IgG1, name in Kabat numbering, V domains shown, one-arm IgG1) VH: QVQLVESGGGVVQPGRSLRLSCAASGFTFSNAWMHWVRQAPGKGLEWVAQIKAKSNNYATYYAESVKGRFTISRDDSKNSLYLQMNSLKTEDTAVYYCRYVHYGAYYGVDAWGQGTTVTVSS VL: DIVMTQSPLSLPVTPGEPASISCRSSQSLVNSNRNTYLHWYQQKPGQAPRLLIYKVSNRFSGVPDRFSGSGSGTDFTLKISRVEAEDVGVYYCGQGTQVPYTFGQGTKLEIK")
3.43

Fill in the blank: the reported KD ratio to GLS3000 of CE115HA000/GLS3000 N53V (antibody, IgG1, name in Kabat numbering, V domains shown, one-arm IgG1) VH: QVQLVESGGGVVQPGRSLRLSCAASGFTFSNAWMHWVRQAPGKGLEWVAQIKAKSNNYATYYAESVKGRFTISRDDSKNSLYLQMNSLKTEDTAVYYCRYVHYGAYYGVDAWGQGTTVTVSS VL: DIVMTQSPLSLPVTPGEPASISCRSSQSLVHSNRNTYLHWYQQKPGQAPRLLIYKVSVRFSGVPDRFSGSGSGTDFTLKISRVEAEDVGVYYCGQGTQVPYTFGQGTKLEIK is ____.
2.14
